Target: recombinant human MER (Homo sapiens, UniProt Q12866)
Construct: purchased Invitrogen
Sequence (Q12866 21-999): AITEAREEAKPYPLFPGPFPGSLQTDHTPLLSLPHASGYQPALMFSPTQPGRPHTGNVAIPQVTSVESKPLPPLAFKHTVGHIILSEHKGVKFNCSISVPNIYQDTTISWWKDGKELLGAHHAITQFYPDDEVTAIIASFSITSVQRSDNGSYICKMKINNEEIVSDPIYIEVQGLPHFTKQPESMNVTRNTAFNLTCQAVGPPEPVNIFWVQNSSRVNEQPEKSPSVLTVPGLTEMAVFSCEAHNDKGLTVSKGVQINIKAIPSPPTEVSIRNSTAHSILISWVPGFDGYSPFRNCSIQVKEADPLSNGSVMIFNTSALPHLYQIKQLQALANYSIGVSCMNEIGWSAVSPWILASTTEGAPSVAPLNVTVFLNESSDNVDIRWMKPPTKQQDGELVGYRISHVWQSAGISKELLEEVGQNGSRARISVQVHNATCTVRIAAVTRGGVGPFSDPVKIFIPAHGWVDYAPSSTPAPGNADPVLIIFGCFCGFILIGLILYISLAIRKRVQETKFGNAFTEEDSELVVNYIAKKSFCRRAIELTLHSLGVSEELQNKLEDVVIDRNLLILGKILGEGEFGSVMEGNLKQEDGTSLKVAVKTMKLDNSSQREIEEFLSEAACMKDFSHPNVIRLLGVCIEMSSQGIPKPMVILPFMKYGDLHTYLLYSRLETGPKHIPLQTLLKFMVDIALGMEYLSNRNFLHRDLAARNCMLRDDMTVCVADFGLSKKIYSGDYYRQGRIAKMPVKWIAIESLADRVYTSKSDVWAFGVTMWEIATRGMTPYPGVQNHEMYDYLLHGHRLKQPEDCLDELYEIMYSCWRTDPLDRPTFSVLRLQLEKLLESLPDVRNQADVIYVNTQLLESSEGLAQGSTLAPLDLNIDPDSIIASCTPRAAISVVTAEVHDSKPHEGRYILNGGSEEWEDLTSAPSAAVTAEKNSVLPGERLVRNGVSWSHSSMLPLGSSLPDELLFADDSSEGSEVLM
Experiment: HTRF KinEASE-TK biochemical potency, MER
Details: 1 nM MER, 700 μM ATP
Parameter: IC50. Scope: all listed entries.

1) O=C1NCCOc2cc(-c3n[nH]c4ncc(-c5ccc6c(c5)CCC(N5CCNCC5)CC6)cc34)ccc21 (stereo not drawn) [Example 48] ... < 0.1 µM
2) C[C@@H]1CCCN1C1CCc2ccc(-c3cnc4[nH]nc(-c5ccc6c(c5)C(=O)NC6(C)C)c4c3)cc2CC1 (stereo partly drawn) [Example 38] ... 0.1 to 1 µM
3) CC1(O)CCOc2cc(-c3n[nH]c4ncc(-c5ccc6c(c5)CC[C@@H](N5CCCC5)CC6)cc34)ccc21 (stereo partly drawn) [Example 31] ... 0.1 to 1 µM
4) O=C1NCCOc2cc(-c3n[nH]c4ncc(-c5ccc6c(c5)CCN(C5CC5)CC6)cc34)ccc21 [Example 20] ... 0.1 to 1 µM
5) CC(C)(O)C(=O)N1CCc2ccc(-c3cnc4[nH]nc(-c5ccc6c(c5)OCCNC6=O)c4c3)cc2CC1 [Example 19] ... 0.1 to 1 µM

Ask: Note down IC50 recorded for O=C1NCCOc2cc(-c3n[nH]c4ncc(-c5ccc6c(c5)CCN(C5COC5)CC6)cc34)ccc21 [Example 11]
Reply: < 0.1 µM

Ask: Note down IC50 recorded for CC1(C)NS(=O)(=O)c2cc(-c3n[nH]c4ncc(-c5ccc6c(c5)CCC(N5CCCC5)CC6)cc34)ccc21 (stereo not drawn) [Example 32]
Reply: < 0.1 µM

Ask: Note down IC50 recorded for O=C1NCCOc2cc(-c3n[nH]c4ncc(-c5ccc6c(c5)CCN(C5CCCC5)CC6)cc34)ccc21 [Example 7]
Reply: < 0.1 µM

Ask: Note down IC50 recorded for CC1(O)CCc2cc(-c3n[nH]c4ncc(-c5ccc6c(c5)CC[C@@H](N5CCCC5)CC6)cc34)ccc21 (stereo partly drawn) [Example 30]
Reply: 0.1 to 1 µM

Ask: Note down IC50 recorded for C[C@@H]1CCCN1C1CCc2ccc(-c3cnc4[nH]nc(-c5ccc6c(c5F)OCCNC6=O)c4c3)cc2CC1 (stereo partly drawn) [Example 60]
Reply: < 0.1 µM

Ask: Note down IC50 recorded for C[C@@H]1CNC(=O)c2ccc(-c3n[nH]c4ncc(-c5ccc6c(c5)CCC(N5CCC[C@H]5C)CC6)cc34)cc2O1 (stereo partly drawn) [Example 59]
Reply: < 0.1 µM

Ask: Note down IC50 recorded for CC1(C)COc2cc(-c3n[nH]c4ncc(-c5ccc6c(c5)CCC(N5CCCC5)CC6)cc34)ccc2C(=O)N1 (stereo not drawn) [Example 35]
Reply: < 0.1 µM

Ask: Note down IC50 recorded for O=C1NCCOc2cc(-c3n[nH]c4ncc(-c5ccc6c(c5)CCN(C5CCCC5)C6)cc34)ccc21 [Example 9]
Reply: < 0.1 µM

Ask: Note down IC50 recorded for O=C1NCCOc2cc(-c3n[nH]c4ncc(-c5ccc6c(c5)CC[C@H](N5CCCC5)CC6)cc34)ccc21 (single isomer, unassigned) [Example 56]
Reply: 0.1 to 1 µM

Ask: Note down IC50 recorded for Cc1cc2c(cc1-c1n[nH]c3ncc(-c4ccc5c(c4)CCC(N4CCC[C@H]4C)CC5)cc13)OCCNC2=O (stereo partly drawn) [Example 40]
Reply: 0.1 to 1 µM

Ask: Note down IC50 recorded for C[C@@H]1CCCN1C1CCc2ccc(-c3cnc4[nH]nc(-c5ccc6c(c5)OCC5(CC5)NC6=O)c4c3)cc2CC1 (stereo partly drawn) [Example 36]
Reply: < 0.1 µM

Ask: Note down IC50 recorded for O=C1NCCOc2cc(-c3n[nH]c4ncc(-c5ccc6c(c5)CCC(N[C@H]5CCOC5)CC6)cc34)ccc21 (stereo partly drawn) [Example 45]
Reply: < 0.1 µM

Ask: Note down IC50 recorded for O=C1NCCOc2cc(-c3n[nH]c4ncc(-c5ccc6c(c5)CCC(N5CCC[C@H]5CO)CC6)cc34)ccc21 (stereo partly drawn) [Example 50]
Reply: < 0.1 µM

Ask: Note down IC50 recorded for O=C1NCCOc2cc(-c3n[nH]c4ncc(-c5ccc6c(c5)CCN(C(=O)C5CC5)CC6)cc34)ccc21 [Example 17]
Reply: < 0.1 µM

Ask: Note down IC50 recorded for CC1(O)CCCCc2cc(-c3n[nH]c4ncc(-c5ccc6c(c5)CCN(C5CCCC5)CC6)cc34)ccc21 (stereo not drawn) [Example 27]
Reply: > 1 µM

Ask: Note down IC50 recorded for COCCN1CCc2ccc(-c3cnc4[nH]nc(-c5ccc6c(c5)OCCNC6=O)c4c3)cc2CC1 [Example 15]
Reply: < 0.1 µM

Ask: Note down IC50 recorded for CC1(O)CCOc2cc(-c3n[nH]c4ncc(-c5ccc6c(c5)CCN(C5CCCC5)CC6)cc34)ccc21 (stereo not drawn) [Example 26]
Reply: 0.1 to 1 µM

Ask: Note down IC50 recorded for CC1(C)NS(=O)(=O)c2cc(-c3n[nH]c4ncc(-c5ccc6c(c5)CCC(N5CCC[C@@H]5CO)CC6)cc34)ccc21 (stereo partly drawn) [Example 34]
Reply: < 0.1 µM

Ask: Note down IC50 recorded for O=C1NCCOc2cc(-c3n[nH]c4ncc(-c5ccc6c(c5)CCN(C5COC5)C6)cc34)ccc21 [Example 12]
Reply: 0.1 to 1 µM
